Tested on: NIM1;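 further: KINOMEscan kinase panel screen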
Construct: gene MGC42105
experimental conditions: concentration: 1 μM, replicates: in singlicate; n = 1
endpoint: %Inh (%)
Quick reminder: number only, in %, skip the unit.

# annotated cases, reported %Inh shown
>>> value_observed("COC(=O)C(Cc1ccccc1)NC(=O)NC1CCN(c2ccnc(Nc3ccc(F)cc3)n2)C1 (stereo not shown)")
33
>>> value_observed("O=c1cc(N2CCOCC2)nc2n(Cc3cccc(Cl)c3Cl)c3ccccc3n12")
2
>>> value_observed("CS(=O)(=O)CCNCc1nc(-c2ccc3ncnc(Nc4ccc(OCc5ccccc5)c(Cl)c4)c3c2)cs1.Cl")
38

Attention now shifts to the item below.
Sample Cc1cccc2c(-c3ccncn3)c(-c3ccc(F)cc3)nn12 — what was its %Inh? 14
